Provide the reported pIC50 of each item.
test system: IL-1β production by THP-1 cells; experiment: IL-1β production by macrophages; type: cell-based, human; conditions: Homo sapiens, THP-1, 24 h, read-out: IC50 IL-1β production
Please note pIC50 is a logarithmic value: minus log10 of concentration in mol/L. Answer with that number alone.

Reported pIC50, compound CC1=C(O)C(=O)C=C2C1=CC=C1[C@@]2(C)CC[C@@]2(C)[C@@H]3C[C@](C)(C(=O)O)CC[C@]3(C)CC[C@]12C : ____
7.64

Same again, this time with O=C1c2ccccc2-[n+]2ccc3c([nH]c4ccccc43)c21
6.37

Also need O=C(CC1NCCCC1O)Cn1cnc2cc(Br)c(Cl)cc2c1=O (stereo not drawn) , thanks.
6.04

* * *

system: IL-8 production by THP-1 cells; test: IL-8 production by macrophages; format: cell-based, human; conditions: THP-1 cells stimulated with opsonized zymosan, 24 hours; read-out: IC50 IL-8 production
measurement.type: IC50

Find the recorded IC50 belonging to CC[C@@]1(O)C(=O)OCc2c1cc1n(c2=O)Cc2cc3c(CN(C)C)c(O)ccc3nc2-1 [topotemay, Topotecan] and report it.
257 nM

Cool, now CO[C@@H]1[C@H](O)C[C@@H](O[C@@H]2C[C@H](Oc3cc4cc5c(c(O)c4c(O)c3C)C(=O)[C@@H](O[C@H]3C[C@@H](O[C@H]4C[C@@H](O[C@H]6C[C@](C)(O)[C@@H](OC(C)=O)[C@H](C)O6)[C@H](O)[C@@H](C)O4)[C@H](O)[C@@H](C)O3)[C@H]([C@H](OC)C(=O)[C@@H](O)[C@@H](C)O)C5)O[C@H](C)[C@@H]2OC(C)=O)O[C@@H]1C [chromomycin A3]
36 nM

* * *

tested on: P. aeruginosa PAE/K799 H187; assay: MIC microtitre broth dilution, P. aeruginosa; assay type: cell-based; settings: P. aeruginosa PAE/K799 H187 wt Gram−, 24 h
measurement.type: Minimum inhibitory concentration

Worked examples, 4 compounds total:
compound="CN(Cc1cnc2nc(N)nc(N)c2n1)c1ccc(C(=O)N[C@@H](CCC(=O)O)C(=O)O)cc1 [methotrexate]" result=N
compound=O=c1[nH]cc(F)c(=O)[nH]1 result="10^−5 Molar"
compound="COc1cc([C@@H]2c3cc4c(cc3[C@@H](O[C@@H]3O[C@@H]5CO[C@@H](C)O[C@H]5[C@H](O)[C@H]3O)[C@H]3COC(=O)[C@H]23)OCO4)cc(OC)c1O [etoposide]" result=N
compound="N.N.[Cl][Pt][Cl] [cisplatin]" result="10^−4 Molar"

Form entry - test system: P. aeruginosa PAE/K799 H187; read-out: Minimum inhibitory concentration; compound: CC[C@@]1(O)C(=O)OCc2c1cc1n(c2=O)Cc2cc3ccccc3nc2-1
N

* * *

System: P. aeruginosa PAE/K799 H187
Assay: MIC microtitre broth dilution, P. aeruginosa
Assay type: cell-based
Conditions: P. aeruginosa PAE/K799 H187 wt Gram−, 24 h
Protocol: MIC assays were conducted essentially as described by Amsterdam, D 1996, “Susceptibility testing of antimicrobials in liquid media”, p. 52-111, in Loman, V, ed. Antibiotics in laboratory medicine, 4th ed Williams and Wilkins, Baltimore, Md.
measurement.type: Minimum inhibitory concentration

compound=Nc1ncnc2c1ccn2[C@@H]1O[C@H](CO)[C@@H](O)[C@H]1O result=N
compound="NC(=O)NO [hydroxyurea]" result="10^−4 Molar"
compound=Nc1ccn([C@@H]2O[C@H](CO)[C@@H](O)[C@@H]2O)c(=O)n1 result=N
compound=COc1cccc2c1C(=O)c1c(O)c3c(c(O)c1C2=O)C[C@@](O)(C(=O)CO)C[C@@H]3O[C@H]1C[C@H](N)[C@H](O)[C@H](C)O1 result="10^−5 Molar"

* * *

test system: IL-1β production by THP-1 cells; experiment: IL-1β production by macrophages; type: cell-based, human; settings: Homo sapiens; THP-1 cells stimulated with opsonized zymosan, 24 hours; read-out: IC50 IL-1β production
Field: pIC50. Provide a value for each of the compounds that follow.
FYI, pIC50 means -log10 of a concentration in mol per litre.

Fill in the blank: the reported pIC50 of C[C@H](NC(=O)C(=O)Nc1ccccc1C(C)(C)C)C(=O)N[C@@H](CC(=O)O)C(=O)COc1c(F)c(F)cc(F)c1F is ____.
6.19

Ok, now COc1c(C)c2c(c(O)c1C/C=C(\C)CCC(=O)O)C(=O)OC2
5.54

Reference for the values: patent US20090226500A1
